# TESTED_SYSTEM: T1, native IHFNTHI (integration host factor of nontypeable Haemophilus influenzae) (nontypeable Haemophilus influenzae …, UniProt P43723 1-96; P43724 1-94)
# T1 construct: also called NTHI IHF
# T1 sequence 1: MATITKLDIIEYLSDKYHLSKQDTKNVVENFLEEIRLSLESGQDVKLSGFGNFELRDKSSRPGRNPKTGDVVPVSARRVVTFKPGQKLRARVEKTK
# T1 sequence 2: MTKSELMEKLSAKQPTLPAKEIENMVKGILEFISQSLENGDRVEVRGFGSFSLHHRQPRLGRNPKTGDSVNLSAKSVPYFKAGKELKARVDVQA
# MEASUREMENT_DESCRIPTION: SPR Biacore 3000, HuMab immobilized, IHFNTHI as analyte
Examples of binders with documented kon follow.
MEASURE: kon (M⁻¹ s⁻¹)

BINDER: humanized anti-tail monoclonal antibody, heavy chain SEQ ID NO: 4 and light chain SEQ ID NO: 11 (antibody, V domains shown, also called H10213 (11E7.C7 Humanized HC1) + L10214 (11E7.C7 Humanized LC2)) VH: EVQLVESGGGLVKPGGSLRLSCAASGFTFSRYGMSWVRQAPGKGLEWVATISSGGSYTYYTDSVKGRFTISRDNAKNSLYLQMNSLRAEDTAVYYCERHGGDGYWYFDVWGQGTMVTVSS VL: DIQMTQSPSSLSASVGDRVTITCRASQDISNYLNWYQQKPGKAVKLLIYYTSRLHSGVPSRFSGSGSGTDYTLTISSLQPEDFATYYCQQGNPLRTFGGGTKVEIKR
MEASURE: kon
READOUT_NUMBER: 100000
--
BINDER: humanized anti-tail monoclonal antibody, heavy chain SEQ ID NO: 5 and light chain SEQ ID NO: 10 (antibody, V domains shown, also called H10214 (11E7.C7 Humanized HC2) + L10213 (11E7.C7 Humanized LC1)) VH: EVQLVESGGGLVKPGGSLRLSCAASGFTFSRYGMSWVRQAPGKGLEWVSTISSGGSYTYYTDSVKGRFTISRDNAKNSLYLQMNSLRAEDTAVYYCERHGGDGYWYFDVWGQGTMVTVSS VL: DIQMTQSPSSLSASVGDRVTITCRASQDISNYLNWYQQKPGKAVKLLIYYTSRLHSGVPSRFSGSGSGTDYTLTISSLQPEDFATYFCQQGNPLRTFGGGTKVEIKR
MEASURE: kon
READOUT_NUMBER: 160000
--
BINDER: humanized anti-tail monoclonal antibody, heavy chain SEQ ID NO: 6 and light chain SEQ ID NO: 11 (antibody, V domains shown, also called H10215 (11E7.C7 Humanized HC3) + L10214 (11E7.C7 Humanized LC2)) VH: EVQLVESGGGLVQPGRSLRLSCTASGFTFSRYGMSWVRQAPGKGLEWVATISSGGSYTYYTDSVKGRFTISRDNAKNILYLQMNSLKTEDTAVYYCERHGGDGYWYFDVWGQGTMVTVSS VL: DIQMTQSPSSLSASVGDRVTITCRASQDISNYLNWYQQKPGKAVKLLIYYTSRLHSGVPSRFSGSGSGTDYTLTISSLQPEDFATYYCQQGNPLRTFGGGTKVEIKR
MEASURE: kon
READOUT_NUMBER: 46000
--
BINDER: humanized anti-tail monoclonal antibody, heavy chain SEQ ID NO: 6 and light chain SEQ ID NO: 10 (antibody, V domains shown, also called H10215 (11E7.C7 Humanized HC3) + L10213 (11E7.C7 Humanized LC1)) VH: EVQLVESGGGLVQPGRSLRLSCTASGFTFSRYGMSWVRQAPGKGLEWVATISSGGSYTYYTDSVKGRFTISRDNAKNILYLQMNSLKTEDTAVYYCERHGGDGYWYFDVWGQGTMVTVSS VL: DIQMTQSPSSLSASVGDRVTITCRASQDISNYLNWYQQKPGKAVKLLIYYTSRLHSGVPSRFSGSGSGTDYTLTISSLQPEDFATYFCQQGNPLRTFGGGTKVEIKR
MEASURE: kon
READOUT_NUMBER: 25000
--
BINDER: humanized anti-tail monoclonal antibody, heavy chain SEQ ID NO: 5 and light chain SEQ ID NO: 11 (antibody, V domains shown, also called H10214 (11E7.C7 Humanized HC2) + L10214 (11E7.C7 Humanized LC2)) VH: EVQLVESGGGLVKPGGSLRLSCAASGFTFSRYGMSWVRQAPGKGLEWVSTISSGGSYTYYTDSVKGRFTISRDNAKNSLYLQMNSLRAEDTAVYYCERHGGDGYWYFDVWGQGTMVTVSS VL: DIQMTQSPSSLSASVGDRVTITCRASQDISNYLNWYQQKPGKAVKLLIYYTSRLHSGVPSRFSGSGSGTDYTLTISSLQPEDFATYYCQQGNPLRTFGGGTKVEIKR
MEASURE: kon
READOUT_NUMBER: 140000
